All values here come from patent US20240368125A1.

mortality at 20 mg/m2 for assorted compounds
test system: adult mosquitoes Culex quinquefasciatus strain P00; assay: Culex quinquefasciatus test (CULXFA surface treatment & contact assay); type: in vivo; settings: surface concentration 20 mg/m^2, 30 min exposure, 24 hours after contact, read-out: efficacy (mortality)

Some compounds with known mortality at 20 mg/m2 results, for comparison:
Give recorded mortality at 20 mg/m2 with adult mosquitoes Culex quinquefasciatus strain P00 for the following compound: CNC(=O)c1cnc(-n2ncnc2[C@H](C)NC(=O)c2cc(C(F)(F)F)cc(C(F)(F)F)c2)cn1 [Example I-009]
80 to 100%

What do we get for CNC(=O)c1cnc(-n2ncnc2[C@H](C)NC(=O)c2cc(OC(F)(F)F)cc(C3CC3)c2)cn1 [Example I-021] ?
80 to 100%

What do we get for C[C@H](NC(=O)c1cc(C(F)(F)F)cc(C(F)(F)F)c1)c1ncnn1-c1cnc(C(=O)N(C)CC2CC2)cn1 [Example I-008] ?
80 to 100%

What do we get for C[C@H](NC(=O)c1cc(C(F)(F)F)cc(C(F)(F)F)c1)c1ncnn1-c1cnc(C(=O)N(C)C2CC2)cn1 [Example I-007] ?
80 to 100%

Next up:
Give recorded mortality at 20 mg/m2 with adult mosquitoes Culex quinquefasciatus strain P00 for the following compound: C[C@H](NC(=O)c1cc(OC(F)(F)F)cc(C2CC2)c1)c1ncnn1-c1cnc(C(=O)N(C)C)cn1 [Example I-002]
80 to 100%
